Values from patent US20240092897A1

# TARGET: T1, Human Siglec-15, His Tag (human Siglec-15 full-length extracellular domain linked with His tag) (human, UniProt Q6ZMC9 20-263)
# T1 construct: Bought from ACROBiosystems; also called Siglec-15 protein; SG5-H52H3
# T1 sequence: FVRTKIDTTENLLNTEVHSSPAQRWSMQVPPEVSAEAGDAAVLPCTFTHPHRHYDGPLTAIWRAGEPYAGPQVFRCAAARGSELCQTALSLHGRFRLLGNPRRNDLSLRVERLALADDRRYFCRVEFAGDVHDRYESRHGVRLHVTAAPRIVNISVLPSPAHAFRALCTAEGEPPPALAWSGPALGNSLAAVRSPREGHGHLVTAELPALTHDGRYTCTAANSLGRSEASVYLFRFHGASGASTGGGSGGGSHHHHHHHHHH
# ASSAY_TEXT: SPR Biacore, antibody captured by anti-human Fc on CM5, Siglec-15 protein as analyte
EXPERIMENTAL_ENDPOINT: koff (s⁻¹)
Record the value in s⁻¹, omitting the unit from your answer.

BINDER: 21F6C6-hH2L4V (antibody, IgG1, V domains shown, Humanized; hIgG1, Kappa) VH: EVQLVESGGGLVKPGGSLRLSCAASGFTFSSYAMSWVRQAPGKGLEWVATISSGGSLIYYADSVTGRFTISRDNAKNTLYLQMNSLRAEDTAVYYCVRHGYYYGDSTLYYAMDYWGQGTTVTVSS VL: DIQMTQSPSSLSASVGDRVTITCRASQSVDYEGDSYMNWYQQKPGKAPKLLIYAASNLQSGVPSRFSGSGSGTDFTLTISSLQPEDFATYYCQQSNEAPLTFGQGTKLEIK
koff (s⁻¹): 0.000184

Consider the record given below.
Ask: Reported koff, binder 21F6C6-hH2L3 (antibody, IgG1, V domains shown, Humanized; hIgG1, Kappa) VH: EVQLVESGGGLVKPGGSLRLSCAASGFTFSSYAMSWVRQAPGKGLEWVATISSGGSLIYYADSVTGRFTISRDNAKNTLYLQMNSLRAEDTAVYYCVRHGYYYGDSTLYYAMDYWGQGTTVTVSS VL: DIQLTQSPSSLSASVGDRVTITCRASQSVDYDGDSYMNWYQQKPGKAPKLLIYAASNLESGVPSRFSGSGSGTDFTLTISSLQPEDFATYYCQQSNEAPLTFGQGTKLEIK : ____
Reply: 0.000353
